Assignment: determine reported EC50 for the given compounds.
ASSAY SYSTEM: Melanocyte-stimulating hormone receptor (Mus musculus)
Sequence (Q01727 whole entry): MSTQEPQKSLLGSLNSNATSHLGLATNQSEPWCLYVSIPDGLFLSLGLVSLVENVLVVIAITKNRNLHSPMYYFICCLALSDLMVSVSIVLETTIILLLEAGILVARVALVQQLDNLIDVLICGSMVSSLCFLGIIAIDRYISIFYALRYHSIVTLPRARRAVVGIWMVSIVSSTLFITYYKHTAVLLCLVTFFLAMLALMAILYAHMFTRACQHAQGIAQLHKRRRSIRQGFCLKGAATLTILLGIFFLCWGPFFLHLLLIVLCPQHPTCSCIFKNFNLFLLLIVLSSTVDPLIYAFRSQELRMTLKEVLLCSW
PROCEDURE SUMMARY: Agonist activity to the mouse Melanocortin-1 receptor (mMC1R)
State just the number; it will be interpreted in µM.

For Melanocyte-stimulating hormone receptor (Mus musculus), give the measured EC50 of the entry CC(=O)N[C@@H](Cc1c[nH]cn1)C(=O)N1Cc2ccccc2C[C@H]1C(=O)N[C@@H](CCCN=C(N)N)C(=O)N[C@@H](Cc1c[nH]c2ccccc12)C(N)=O
53.6

For Melanocyte-stimulating hormone receptor (Mus musculus), give the measured EC50 of the entry CC(=O)N[C@@H](Cc1c[nH]cn1)C(=O)N[C@@H](C(=O)N[C@@H](CCCN=C(N)N)C(=O)N[C@@H](Cc1c[nH]c2ccccc12)C(N)=O)c1ccccc1
16.9

For Melanocyte-stimulating hormone receptor (Mus musculus), give the measured EC50 of the entry CC(=O)N[C@@H](Cc1cnc[nH]1)C(=O)N[C@@H](Cc1cccc2ccccc12)C(=O)N[C@@H](CCCNC(=N)N)C(=O)N[C@@H](Cc1c[nH]c2ccccc12)C(N)=O
15.2

---

Assignment: determine reported pEC50 for the given molecules.
ASSAY SYSTEM: Melanocortin receptor 5 (Mus musculus, UniProt P41149)
Sequence (P41149 whole entry): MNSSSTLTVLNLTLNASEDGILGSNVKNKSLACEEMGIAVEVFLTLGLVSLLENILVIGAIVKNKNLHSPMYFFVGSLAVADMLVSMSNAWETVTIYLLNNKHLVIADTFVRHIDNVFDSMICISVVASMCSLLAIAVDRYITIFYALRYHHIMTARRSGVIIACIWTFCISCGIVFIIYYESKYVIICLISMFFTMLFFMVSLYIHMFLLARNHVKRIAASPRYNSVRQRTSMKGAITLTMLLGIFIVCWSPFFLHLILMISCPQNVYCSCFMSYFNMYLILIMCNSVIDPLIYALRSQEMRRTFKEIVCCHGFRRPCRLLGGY
PROCEDURE SUMMARY: Agonist activity towards mouse Melanocortin-5 receptor (mMC5R)
# reply with the number alone; pEC50 is -log10 of concentration in mol/L

Note down pEC50 recorded for CC(=O)N[C@@H](Cc1cnc[nH]1)C(=O)N[C@@H](Cc1cccnc1)C(=O)N[C@@H](CCCNC(=N)N)C(=O)N[C@@H](Cc1c[nH]c2ccccc12)C(N)=O
4.44

Note down pEC50 recorded for CC(=O)N[C@@H](Cc1cnc[nH]1)C(=O)N[C@H](Cc1cccc2ccccc12)C(=O)N[C@@H](CCCNC(=N)N)C(=O)N[C@@H](Cc1c[nH]c2ccccc12)C(N)=O
7.29

---

ASSAY SYSTEM: Melanocortin receptor 5 (Mus musculus, UniProt P41149)
PROCEDURE SUMMARY: Agonist activity towards mouse Melanocortin-5 receptor (mMC5R)
Type: functional
Where a SMILES comes first, the peptide text is derived from it.
Assignment: determine reported EC50 for the given molecules.
State just the number; it will be interpreted in µM.

Note down EC50 recorded for CC(=O)N[C@@H](Cc1cnc[nH]1)C(=O)N[C@@H](Cc1cccc2ccccc12)C(=O)N[C@@H](CCCNC(=N)N)C(=O)N[C@@H](Cc1c[nH]c2ccccc12)C(N)=O
11.2

Note down EC50 recorded for CC(=O)N[C@@H](Cc1c[nH]cn1)C(=O)N[C@@H](Cc1ccc2ccccc2c1)C(=O)N[C@@H](CCCN=C(N)N)C(=O)N[C@@H](Cc1c[nH]c2ccccc12)C(N)=O
7.4

Note down EC50 recorded for CC(=O)N[C@@H](Cc1cnc[nH]1)C(=O)N[C@H](Cc1ccc(O)cc1)C(=O)N[C@@H](CCCNC(=N)N)C(=O)N[C@@H](Cc1c[nH]c2ccccc12)C(N)=O
0.631

Note down EC50 recorded for CC(=O)N[C@@H](Cc1cnc[nH]1)C(=O)N[C@H](CCc1ccccc1)C(=O)N[C@@H](CCCNC(=N)N)C(=O)N[C@@H](Cc1c[nH]c2ccccc12)C(N)=O
2.8

Note down EC50 recorded for CC(=O)N[C@@H](Cc1cnc[nH]1)C(=O)N[C@@H](Cc1ccc(-c2ccccc2)cc1)C(=O)N[C@@H](CCCNC(=N)N)C(=O)N[C@@H](Cc1c[nH]c2ccccc12)C(N)=O
5.5

Note down EC50 recorded for CC(=O)N[C@@H](Cc1cnc[nH]1)C(=O)N[C@@H](Cc1ccncc1)C(=O)N[C@@H](CCCNC(=N)N)C(=O)N[C@@H](Cc1c[nH]c2ccccc12)C(N)=O
9.7

Note down EC50 recorded for CC(=O)N[C@@H](Cc1c[nH]cn1)C(=O)N1Cc2ccccc2C[C@H]1C(=O)N[C@@H](CCCN=C(N)N)C(=O)N[C@@H](Cc1c[nH]c2ccccc12)C(N)=O
21.3

Note down EC50 recorded for CC(=O)N[C@@H](Cc1cnc[nH]1)C(=O)N[C@@H](Cc1ccc(O)cc1)C(=O)N[C@@H](CCCNC(=N)N)C(=O)N[C@@H](Cc1c[nH]c2ccccc12)C(N)=O (Ac-HYRW-NH2)
32.7

Note down EC50 recorded for CC(=O)N[C@@H](Cc1c[nH]cn1)C(=O)N[C@@H](C(=O)N[C@@H](CCCN=C(N)N)C(=O)N[C@@H](Cc1c[nH]c2ccccc12)C(N)=O)C(c1ccccc1)c1ccccc1
4.3

---

ASSAY SYSTEM: Melanocortin receptor 4 (Mus musculus)
Sequence (P56450 whole entry): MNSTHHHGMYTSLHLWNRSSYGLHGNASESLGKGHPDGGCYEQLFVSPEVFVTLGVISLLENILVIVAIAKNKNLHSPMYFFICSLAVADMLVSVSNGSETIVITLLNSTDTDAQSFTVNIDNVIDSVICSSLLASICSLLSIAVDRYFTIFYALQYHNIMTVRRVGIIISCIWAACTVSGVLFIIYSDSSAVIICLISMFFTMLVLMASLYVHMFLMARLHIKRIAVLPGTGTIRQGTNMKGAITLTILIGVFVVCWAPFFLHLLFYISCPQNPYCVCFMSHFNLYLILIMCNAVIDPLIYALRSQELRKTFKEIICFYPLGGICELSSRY
PROCEDURE SUMMARY: Agonist activity to the mouse Melanocortin-4 receptor (mMC4R)
pEC50: −log10 of the molar value. Where a SMILES comes first, the peptide text is derived from it.
Assignment: determine reported pEC50 for the given compounds.

Note down pEC50 recorded for CC(=O)N[C@@H](Cc1c[nH]cn1)C(=O)N1Cc2ccccc2C[C@H]1C(=O)N[C@@H](CCCN=C(N)N)C(=O)N[C@@H](Cc1c[nH]c2ccccc12)C(N)=O
< 4.00

Note down pEC50 recorded for CC(=O)N[C@@H](Cc1cnc[nH]1)C(=O)N[C@@H](Cc1cccnc1)C(=O)N[C@@H](CCCNC(=N)N)C(=O)N[C@@H](Cc1c[nH]c2ccccc12)C(N)=O
< 4.00

Note down pEC50 recorded for CC(=O)N[C@@H](Cc1cnc[nH]1)C(=O)N[C@@H](C)C(=O)N[C@@H](CCCNC(=N)N)C(=O)N[C@@H](Cc1c[nH]c2ccccc12)C(N)=O (Ac-HARW-NH2)
< 4.00

---

Assignment: determine reported EC50 for the given compounds.
ASSAY SYSTEM: Melanocyte-stimulating hormone receptor (Mus musculus)
PROCEDURE SUMMARY: Agonist activity to the mouse Melanocortin-1 receptor (mMC1R)
Where a SMILES comes first, the peptide text is derived from it.
State just the number; it will be interpreted in µM.

Note down EC50 recorded for CC(=O)N[C@@H](Cc1cnc[nH]1)C(=O)N[C@@H](C)C(=O)N[C@@H](CCCNC(=N)N)C(=O)N[C@@H](Cc1c[nH]c2ccccc12)C(N)=O (Ac-HARW-NH2)
30

Note down EC50 recorded for CC(=O)N[C@@H](Cc1cnc[nH]1)C(=O)N[C@@H](Cc1ccc(O)cc1)C(=O)N[C@@H](CCCNC(=N)N)C(=O)N[C@@H](Cc1c[nH]c2ccccc12)C(N)=O (Ac-HYRW-NH2)
61.4

Note down EC50 recorded for CC(=O)N[C@@H](Cc1cnc[nH]1)C(=O)N[C@H](Cc1ccc2ccccc2c1)C(=O)N[C@@H](CCCNC(=N)N)C(=O)N[C@@H](Cc1c[nH]c2ccccc12)C(N)=O
0.167

Note down EC50 recorded for CC(=O)N[C@@H](Cc1cnc[nH]1)C(=O)N[C@H](Cc1ccc(O)cc1)C(=O)N[C@@H](CCCNC(=N)N)C(=O)N[C@@H](Cc1c[nH]c2ccccc12)C(N)=O
3.2

Note down EC50 recorded for CC(=O)N[C@@H](Cc1cnc[nH]1)C(=O)N[C@@H](Cc1c[nH]c2ccccc12)C(=O)N[C@@H](CCCNC(=N)N)C(=O)N[C@@H](Cc1c[nH]c2ccccc12)C(N)=O
33.4

---

ASSAY SYSTEM: UniProtKB P56450
PROCEDURE SUMMARY: Agonist activity to the mouse Melanocortin-4 receptor (mMC4R)
Assay type: functional
Where a SMILES comes first, the peptide text is derived from it.
PROPERTY: EC50

Note down EC50 recorded for CC(=O)N[C@@H](Cc1cnc[nH]1)C(=O)N[C@@H](Cc1ccc(O)cc1)C(=O)N[C@@H](CCCNC(=N)N)C(=O)N[C@@H](Cc1c[nH]c2ccccc12)C(N)=O (Ac-HYRW-NH2)
> 100 µM

Note down EC50 recorded for CC(=O)N[C@@H](Cc1cnc[nH]1)C(=O)N[C@H](CCc1ccccc1)C(=O)N[C@@H](CCCNC(=N)N)C(=O)N[C@@H](Cc1c[nH]c2ccccc12)C(N)=O
11.1 µM

Note down EC50 recorded for CC(=O)N[C@@H](Cc1c[nH]cn1)C(=O)N[C@H](Cc1c[nH]c2ccccc12)C(=O)N[C@@H](CCCN=C(N)N)C(=O)N[C@@H](Cc1c[nH]c2ccccc12)C(N)=O
> 100 µM

Note down EC50 recorded for CC(=O)N[C@@H](Cc1c[nH]cn1)C(=O)N[C@H](Cc1ccc(-c2ccccc2)cc1)C(=O)N[C@@H](CCCN=C(N)N)C(=O)N[C@@H](Cc1c[nH]c2ccccc12)C(N)=O
0.0684 µM

Note down EC50 recorded for CC(=O)N[C@@H](Cc1c[nH]cn1)C(=O)N[C@@H](Cc1ccccc1)C(=O)N[C@@H](CCCN=C(N)N)C(=O)N[C@@H](Cc1c[nH]c2ccccc12)C(N)=O
0.00211 µM

---

ASSAY SYSTEM: Melanocortin receptor 3 (Mus musculus, UniProt P33033)
Sequence (P33033 whole entry): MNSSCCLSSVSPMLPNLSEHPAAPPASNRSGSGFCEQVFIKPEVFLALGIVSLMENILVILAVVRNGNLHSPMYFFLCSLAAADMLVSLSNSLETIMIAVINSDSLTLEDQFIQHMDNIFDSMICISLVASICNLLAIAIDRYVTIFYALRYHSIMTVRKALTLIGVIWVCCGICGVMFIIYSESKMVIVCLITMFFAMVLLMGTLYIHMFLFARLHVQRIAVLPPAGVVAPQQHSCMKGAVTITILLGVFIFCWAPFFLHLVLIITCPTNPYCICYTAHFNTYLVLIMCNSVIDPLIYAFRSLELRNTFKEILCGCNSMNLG
PROCEDURE SUMMARY: Agonist activity to the mouse Melanocortin-3 receptor (mMC3R)
Assignment: determine reported pEC50 for the given molecules.
# reply with the number alone; pEC50 is -log10 of concentration in mol/L

For Melanocortin receptor 3 (Mus musculus, UniProt P33033), give the measured pEC50 of the entry CC(=O)N[C@@H](Cc1c[nH]cn1)C(=O)NC1(C(=O)N[C@@H](CCCN=C(N)N)C(=O)N[C@@H](Cc2c[nH]c3ccccc23)C(N)=O)CCc2ccccc2C1 (stereo in doubt; 26)
5.11

For Melanocortin receptor 3 (Mus musculus, UniProt P33033), give the measured pEC50 of the entry CC(=O)N[C@@H](Cc1c[nH]cn1)C(=O)N[C@H](Cc1ccc(-c2ccccc2)cc1)C(=O)N[C@@H](CCCN=C(N)N)C(=O)N[C@@H](Cc1c[nH]c2ccccc12)C(N)=O
5.69
